System: Mast/stem cell growth factor receptor Kit (Homo sapiens), P10721 [V560G]
Sequence (P10721 whole entry V560G): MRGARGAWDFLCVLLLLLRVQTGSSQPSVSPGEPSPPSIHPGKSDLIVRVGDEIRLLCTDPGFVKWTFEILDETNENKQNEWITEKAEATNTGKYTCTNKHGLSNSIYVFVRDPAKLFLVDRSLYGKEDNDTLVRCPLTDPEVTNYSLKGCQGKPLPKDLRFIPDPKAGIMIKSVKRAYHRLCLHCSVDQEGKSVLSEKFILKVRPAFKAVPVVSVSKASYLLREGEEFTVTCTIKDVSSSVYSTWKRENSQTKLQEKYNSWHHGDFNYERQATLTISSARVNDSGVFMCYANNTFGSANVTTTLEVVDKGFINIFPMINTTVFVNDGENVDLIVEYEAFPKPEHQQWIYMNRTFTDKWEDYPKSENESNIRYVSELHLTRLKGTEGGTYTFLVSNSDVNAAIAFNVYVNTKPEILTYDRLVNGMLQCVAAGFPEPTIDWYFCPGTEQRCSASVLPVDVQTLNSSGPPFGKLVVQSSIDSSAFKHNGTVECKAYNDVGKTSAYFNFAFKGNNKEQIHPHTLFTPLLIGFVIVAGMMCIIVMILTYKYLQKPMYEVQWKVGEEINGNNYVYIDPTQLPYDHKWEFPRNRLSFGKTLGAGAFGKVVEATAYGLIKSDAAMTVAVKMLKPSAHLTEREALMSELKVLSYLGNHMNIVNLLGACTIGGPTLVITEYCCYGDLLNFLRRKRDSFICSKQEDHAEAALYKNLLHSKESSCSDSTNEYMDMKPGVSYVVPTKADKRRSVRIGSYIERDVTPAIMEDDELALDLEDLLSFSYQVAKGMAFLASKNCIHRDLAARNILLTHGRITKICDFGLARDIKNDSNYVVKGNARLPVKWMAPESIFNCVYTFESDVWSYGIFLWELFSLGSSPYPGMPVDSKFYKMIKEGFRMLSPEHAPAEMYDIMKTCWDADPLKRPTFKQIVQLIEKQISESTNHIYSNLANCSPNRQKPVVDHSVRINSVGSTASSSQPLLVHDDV
Settings: at 1 µM
For each entry below, report its inhibition value.
Reply with the number, then its unit.

Please review the following examples before continuing.
| molecular_string | measure_name | obs_value |
| --- | --- | --- |
| [O-][S+]1CCN(Cc2ccc(-c3ccc4ncnc(Nc5ccc(OCc6cccc(F)c6)c(Cl)c5)c4c3)o2)CC1 | inhibition | -0.28% |
| CN1CCC(n2cnc(-c3ccc(F)cc3)c2-c2ccnc(Nc3ccccc3)n2)CC1 | inhibition | 4.06% |
| CNC(=O)c1cccc(C#Cc2cncnc2Nc2ccc(OCc3cccc(F)c3)c(Cl)c2)c1 | inhibition | 5.48% |
| Cc1cccc2c1NC(=O)/C2=N\Nc1ccc(S(N)(=O)=O)cc1 | inhibition | 6.53% |
| COC(=O)Nc1nc2ccc(Oc3ccc(NC(=O)Nc4cccc(Cl)c4)cc3)cc2[nH]1 | inhibition | 91.2% |
| COC(=O)Nc1nc2ccc(S(=O)(=O)c3ccc(NC(=O)Nc4cc(C(F)(F)F)ccc4F)cc3)cc2[nH]1 | inhibition | 0.67% |
| NC(=O)c1sc(-n2cnc3ccc(C(F)(F)F)cc32)cc1OCc1ccccc1Br | inhibition | -0.61% |
| O=C(Nc1n[nH]c2cc(-c3ccc(F)cc3)ccc12)C1CC1 | inhibition | 0.08% |

Required: inhibition, one value per compound below.
1. COc1ccc(CNC(=O)c2ccc(-c3cc(-c4nnc(C)o4)ccc3C)cc2)cc1
2. CS(=O)(=O)CCNCc1ccc(-c2ccc3ncnc(Nc4ccc(OCc5ccccc5)c(C(F)(F)F)c4)c3c2)o1
3. NS(=O)(=O)c1ccc(N/N=C2\C(=O)Nc3ccc4ncccc4c32)cc1
4. CCc1nn2ncccc2c1-c1ccnc(NC2CC2)n1
5. CCCN1CCC(c2ccc(Nc3nc(Nc4cc(F)ccc4C(N)=O)c4cc[nH]c4n3)c(OC)c2)CC1
6. Cc1ccc2c(-c3ccnc(Nc4ccccc4)n3)c(-c3ccc(F)cc3)nn2n1

Solution:
4.58%
-2.89%
36.8%
3.12%
1.43%
27.9%

Please state, for each entry, its recorded inhibition.
1. COc1cc(Nc2nccc(Nc3ccc4c(C)n[nH]c4c3)n2)cc(OC)c1OC
2. Clc1ccc(-c2nn3ncccc3c2-c2ccnc(Nc3ccccc3)n2)cc1
3. NS(=O)(=O)c1ccc(Nc2ncc(-c3ccccc3)o2)cc1
4. CC(C)COC(=O)c1ccc2c(c1)/C(=C/Nc1ccc(S(N)(=O)=O)cc1)C(=O)N2
5. CC(=O)Nc1cccc(C#Cc2cncnc2Nc2ccc(OCc3cccc(F)c3)c(Cl)c2)c1
6. COc1ccc(-c2oc3ncnc(N)c3c2-c2ccc(NC(=O)Nc3cc(C(F)(F)F)ccc3F)cc2)cc1
7. O=S(=O)(CCNCc1ccc(-c2ccc3ncnc(Nc4ccc(OCc5cccc(F)c5)c(Cl)c4)c3c2)o1)c1ccccc1

Solution:
["57.9%", "39.8%", "52.5%", "5.62%", "5.18%", "78.6%", "-1.16%"]

For every item in the list below, what is its measured inhibition?
1. c1cc(-c2cnn3nc(N4CCOCC4)ccc23)nc(NC2CC2)n1
2. Cc1cccc(Nc2ncc(-c3ccccc3)o2)c1
3. COc1ccc2c(-c3ccnc(Nc4cccc(OC(F)(F)F)c4)n3)cnn2n1
4. CCOc1ccc2c(-c3ccnc(Nc4cccc(C(F)(F)F)c4)n3)cnn2n1
5. CS(=O)(=O)CCNCc1coc(-c2ccc3ncnc(Nc4ccc(OCc5ccccc5)cc4)c3c2)c1
6. O=C(O[C@H]1CN[C@H](C#Cc2cc3ncnc(Nc4ccc(Cc5ccccc5)cc4)c3s2)C1)N1CCOCC1
7. Fc1cccc(COc2ccc(Nc3ncnc4sc(-c5ccco5)cc34)cc2Cl)c1

Solution:
1: 5%; 2: 53%; 3: 5.63%; 4: 0.29%; 5: 2.94%; 6: -0.08%; 7: 0.57%
